Target Desc: hT40 (Homo sapiens, UniProt P10636)
Sequence (P10636 1-441 isoform P10636-8): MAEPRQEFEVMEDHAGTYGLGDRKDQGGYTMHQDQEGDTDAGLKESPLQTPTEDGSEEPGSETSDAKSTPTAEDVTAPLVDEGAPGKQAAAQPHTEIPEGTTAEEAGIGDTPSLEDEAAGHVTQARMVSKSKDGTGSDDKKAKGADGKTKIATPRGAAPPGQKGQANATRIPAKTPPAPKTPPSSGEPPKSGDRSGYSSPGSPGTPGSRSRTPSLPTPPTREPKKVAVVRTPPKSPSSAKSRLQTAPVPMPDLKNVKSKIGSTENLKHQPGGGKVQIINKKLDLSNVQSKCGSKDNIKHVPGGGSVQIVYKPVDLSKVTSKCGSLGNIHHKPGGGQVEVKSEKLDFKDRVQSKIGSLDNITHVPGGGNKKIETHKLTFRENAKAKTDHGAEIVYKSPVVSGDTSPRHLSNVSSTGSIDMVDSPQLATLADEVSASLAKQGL
Assay: Biacore X100 SPR, scAb captured via anti-HuCk, hT40 as analyte
Type: binding
Settings: scAb, Table 23, T441 (hT40)
Quick reference for ka among some molecules
Give just the numeric value; M⁻¹ s⁻¹ need not be written.

Below: 3 molecules and their reported ka.
Given the molecule CB7: anti-tau clone, SEQ ID NO: 364 (protein, CB7 amino acid sequence) scFv: QVQLQESGPSLVKPSQTLSLTCTVSGFSLTNYRVGWVRQAPGKALEWVSNIRSGGTTWYNPALKSRLSITADTSKSQVSLSLSSVTTEDTAVYYCARDSSGDLYAYDYWGPGLLVTVSSEGKSSGASGESKVDDQAVLTQPSSVSRSLGQSVSMTCSGSSSNVGYGNYMAWFQQVPGSAPKLLIYGATSRASGVPDRFSGSRSGNTATLTISSLQAEDEADYYCASYDSTSGGVFGSGTRLTVLG , what is its reported ka?
133400

Given the molecule S1D12: anti-tau clone from immunised sheep, SEQ ID NO: 32 (protein, S1D12 amino acid sequence) scFv: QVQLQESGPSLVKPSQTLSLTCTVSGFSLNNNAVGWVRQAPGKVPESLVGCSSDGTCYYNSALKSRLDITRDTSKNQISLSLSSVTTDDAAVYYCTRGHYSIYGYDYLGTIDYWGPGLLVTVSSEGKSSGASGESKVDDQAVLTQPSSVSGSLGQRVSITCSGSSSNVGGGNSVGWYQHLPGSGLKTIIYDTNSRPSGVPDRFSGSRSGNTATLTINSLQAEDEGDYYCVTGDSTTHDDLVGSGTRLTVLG , what is its reported ka?
1.252e+06

Given the molecule S1E12: anti-tau clone, SEQ ID NO: 218 (protein, S1E12 amino acid sequence) scFv: QVQLQESGPSLVKPSQTLSLTCTVSGFSLGSNSVGWVRQAPGKAPEWVAGIDTDGEEGYNPALNSRLSITRDTSKSQVSLSLSSVTSEDTAVYYCGRSYRADGLAYGYVQAIDYWGPGLLVTVSSEGKSSGASGESKVDDRVVRTQPSSVSGSLGQRVSITCSGSFIGISSVGWFQQLPGSGLRTIIVASDGRPSGVPDRFSMSKSGNTATLTISSLQAEDEADYFCGSSDRTQYTGVFGSGTRLTVLG , what is its reported ka?
385000

# context switch: different molecule, same ka
Given the molecule CE3: anti-tau clone, SEQ ID NO: 367 (protein, CE3 amino acid sequence) scFv: QVRLQESGPSLVKPSQTLSVTCTVSGFSLISNAVGWVRQAPGKVPESLAGCSSDGKCYYNSALKSRLDITRDTSKNQISLSLSSVTTDDAAVYYCTRGYYPVYGYDYLGTIDYWGPGLLVTVSSEGKSSGASGESKVDDQAVLTQPSSVSGSLGQRVSITCSGSSSNVGRNDVAWFQQLPGSGLRTIIYGTTSRPSGIPDRFSGSKSGVTATLTIDSLQAEDEADYFCASGDSSAINDIFGSGTRLTVLG , what is its reported ka?
174500
